System: Escherichia coli
Assay: In vitro antibacterial activity, agar dilution method (clinical isolates)
Format: cell-based
Conditions: clinically isolated strains, Gram-negative, read-out: MIC90 E. coli
Can you tell me MIC90 for the items I'm about to list?
Number only, in µg/mL; omit the unit.

Entry C[C@@H](O)[C@H]1C(=O)N2C(C(=O)O)=C(SC3CN=CN(S(N)(=O)=O)C3)[C@H](C)[C@H]12 (stereo partly drawn) [Compound 4] — recorded MIC90 = 0.032

Entry under test: C[C@@H](O)[C@H]1C(=O)N2C(C(=O)O)=C(S[C@H]3CCN(S(N)(=O)=O)C3)[C@H](C)[C@H]12 [Compound 2] . Its MIC90 was 0.016

The recorded MIC90 for entry C[C@@H](O)[C@H]1C(=O)N2C(C(=O)O)=C(SC3CCCN(S(N)(=O)=O)C3)[C@H](C)[C@H]12 (stereo partly drawn) [Compound 3] equals 0.032

Input C[C@@H](O)[C@H]1C(=O)N2C(C(=O)O)=C(S[C@@H]3CN[C@H](CNS(N)(=O)=O)C3)[C@H](C)[C@H]12 [doripenem, Doripenem, reference compound] . Output MIC90: 0.063

The reported MIC90 of the compound CCN(CC)S(=O)(=O)N1CC(SC2=C(C(=O)O)N3C(=O)[C@H]([C@@H](C)O)[C@H]3[C@H]2C)C1 [Compound 7] was 0.016

Record summary for C[C@@H](O)[C@H]1C(=O)N2C(C(=O)O)=C(SC3CN(S(=O)(=O)NCC(N)=O)C3)[C@H](C)[C@H]12 [Compound 10] : reported MIC90 = 0.008
